Target: purified recombinant linear UB tetramers
ENDPOINT_NAME: linear UB polymer cleavage activity

1) GST-OTU4c-C136S (protein) MMICYSPITTCSRNAISIKRHLGSRLYGVVAHGSSKFSCYSLLSGLSRRHYTGFRVSVSNRPSSWHDKGLFGFAYTGVIVSLLVCYSSTSQSAYADSSRDKDANNVHHHSSDGKFHNGKRVYTDYSIIGIPGDGRSLFRSVAHGFCLRSGKLAPGEKMQRELADELRTRVADEFIQRRQETEWFVEGDFDTYVRQIRDPHVWGGEPELFMASHVLQMPITVYMKDDKAGGLISIAEYGQEYGKDDPIRVLYHGFGHYDALLLHESKASIPKSKL : generally abolished
2) OTU1-H288R (protein) MQNQIDMVKDEAEVAASISAIKGEEWGNCSSVEDQPSFQEEEAAKVPYVGDKEPLSSLAAEYQSGSPILLEKIKILDSQYIGIRRTRGDGNCFFRSFMFSYLEHILESQDRAEVDRIKVNVEKCRKTLQNLGYTDFTFEDFFALFLEQLDDILQGTEESISYDELVNRSRDQSVSDYIVMFFRFVTAGDIRTRADFFEPFITGLSNATVDQFCKSSVEPMGEESDHIHITALSDALGVAIRVVYLDRSSCDSGGVTVNHHDFVPVGITNEKDEEASAPFITLLYRPGRYDILYPKPSCKVSDNVGK : generally abolished
